targetUnderTest: MCL-1ΔNΔC (Homo sapiens, UniProt Q07820)
Sequence (Q07820 172-320 limits assumed, stated change not applied): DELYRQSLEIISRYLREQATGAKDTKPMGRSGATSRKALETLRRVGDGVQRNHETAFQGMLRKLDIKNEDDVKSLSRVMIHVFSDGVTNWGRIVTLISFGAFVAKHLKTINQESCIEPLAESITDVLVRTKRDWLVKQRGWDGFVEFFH
test: High-throughput competitive FP binding screen, FITC-MCL-1 SAHB/MCL-1ΔNΔC interaction
Parameters: the C-terminal alpha-helix was deleted from each of these constructs; GST (N, cleaved yes); made in house
testConditions: FITC-MCL-1 SAHB/MCL-1ΔNΔC interaction pair, competitive FP screen

compound: Cc1ccc2c(c1C)NC(C(=O)O)C1CC=CC21 (stereo not drawn)
MCL-1% Bound: 14.6%
--
compound: CC1CCC[SH](c2cc(O)ccc2O)C1 (stereo not drawn)
MCL-1% Bound: 41.16%
--
compound: CCc1cccc(NC(=O)/C=C/c2ccco2)c1
MCL-1% Bound: −0.7334%

These measurements were taken from patent US20150315211A1.
